src = the RNAGym collection of RNA variant scans (doi:10.1021/acssynbio.7b00057)

# aptazyme ON/OFF ratio values compiled below
B1: Pistol ribozyme (parent)
chain: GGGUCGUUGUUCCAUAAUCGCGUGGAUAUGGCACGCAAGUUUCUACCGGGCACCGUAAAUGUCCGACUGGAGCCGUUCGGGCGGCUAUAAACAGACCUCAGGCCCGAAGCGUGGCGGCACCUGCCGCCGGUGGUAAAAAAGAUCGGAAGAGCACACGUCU

Variants of: B1
Assay: aptazyme ON/OFF ratio, guanine; higher = stronger switching; co-transcriptional cleavage with and without guanine
Write no unit; give the number alone.

Example results:
>>> measurement("U7A U8C G9A U10C U11C C12G C13G")
1.07
>>> measurement("U7C U8A U10A U11G C13G")
1.04
>>> measurement("U7G U8A G9A U10C C12A C13G")
1.06
>>> measurement("U7C U11A C12G C13U")
1.07

Query :: Which aptazyme ON/OFF ratio is reported for this variant? U7C U8G G9C U10C U11C C12U C13A
Result :: 1.04

Query :: Likewise for U7A G9C U10G U11C C12U C13G ?
Result :: 1.07

Query :: Follow-up entry: U8A G9A U10A U11G C12A C13U
Result :: 1.11
